MEASUREMENT_PROTOCOL: fission yeast growth modulation, primary screen, strain 972, OD600, 24 h, no modulator (AID 1090);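 also: basal condition with compound alone and no growth modifier present; test concentration not given here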
EXPERIMENTAL_CONDITIONS: S. pombe 972 growth, higher = more signal, called active from +8 up or from −8 down
Given measured z-score, output label 1 if it is greater than or equal to 0.7 and label 0 if not.

COMPOUND	CLASS_NAME
COC(=O)C1=CC(CCCO)=CC(C2CC2)N(C)C=C1C(=O)OC (stereo not given)	label 0
CCOc1cc(C(O)C2C=CC3C(=O)N(c4ccccc4)C(=O)C3N2Nc2ccc(C#N)cc2)ccc1O (stereo not given)	label 1

Given the entry "C=C(/C(=C/C[C@H](OC(C)=O)c1cccc(OCCO)c1)c1cnc2ccccc2c1)C(C)C" , answer whether its z-score meets or surpasses 0.7.
label 0

Please check the record CCCCCCCCCCC(O)C1C=CC2C(=O)N(C)C(=O)C2N1Nc1ccc([N+](=O)[O-])cc1[N+](=O)[O-] (stereo not given) and state if its z-score is at or above 0.7.
label 0

Test whether the compound O=C1NC(=O)C2C1C=CC(C(O)c1cccc3ccccc13)N2Nc1ccc(Cl)cc1Cl (stereo not given) records z-score of 0.7 or higher.
label 0

For this compound, is measured z-score 0.7 or higher? "CCCC[C@@H]1C[C@H]1[C@@H](NC(=O)c1cccs1)c1ccc(C(F)(F)F)cc1"
label 1

Item "COCC1=C2[C@@H](CCc3ccccc3)OB(O)C[C@@H]2[C@@H]2C(=O)C=CC(=O)[C@@H]2C1" with z-score of 0.7 or above?
label 0

Assess whether reported z-score for C=C(C)C1CCC(C(O)C2C=CC3C(=O)N(C)C(=O)C3N2N2CCCCC2)CC1 (stereo not given) sits at 0.7 or higher.
label 0

Please check the record "NCCCCCCNC(=O)[C@@H]1C[C@@H]2C(=O)N[C@@H](CCCCN)C(=O)N2[C@@H]1c1cccc(OCCO)c1" and state if its z-score is at or above 0.7.
label 1

Record "CC(C)C[C@@H]1NC(=O)[C@@H]2C[C@H](C(=O)NCCCCN(C)C)[C@H](c3cccc(OCCO)c3)N2C1=O" ; criterion: z-score no lower than 0.7. Met?
label 0

Does the reported z-score for "[N-]=[N+]=Nc1ccccc1[C@H]1OC(c2ccc(OCCCO)cc2)=N[C@@]1(CCS(=O)(=O)c1ccccc1)C(=O)NCCN1CCOCC1" fall at or above the 0.7 mark?
label 1

Test whether the compound "NC(=O)NCC#Cc1ccc2c(c1)[C@]1(C(=O)N2)[C@H](C(=O)O)[C@H]2C(=O)O[C@H](c3ccccc3)[C@H](c3ccccc3)N2[C@@H]1c1ccc(OCCO)cc1" records z-score of 0.7 or higher.
label 0

Does the compound "CCOC(=O)C[C@H]1[C@H](OC(=O)c2cc3ccccc3oc2=O)[C@@H](NC(=O)c2ccc(-c3ccccc3)cc2)c2cc(OCCCO)ccc2N1C(=O)c1ccc2ccccc2n1" have recorded z-score that is 0.7 or more?
label 0

State whether the measured z-score reaches 0.7, counting equality as reaching it, for "CN(C)C(=O)[C@@]1(Cc2ccccc2CN=[N+]=[N-])N=C(c2ccc(OCCCO)cc2)O[C@H]1c1ccccc1CN=[N+]=[N-]"
label 1

Could you tell me if the measured z-score of "COC(=O)[C@@]1(Cc2ccccc2)[C@H]2c3cc(C(=O)N(C)C)n(Cc4c(CO)[nH]cc(C)c4=O)c3C[C@H]2CN1C(=O)c1ccccc1" reaches 0.7 or more?
label 1

Determine whether measured z-score meets or exceeds 0.7 for N#Cc1ccc(C(O)C2C=CC3C(=O)N(c4ccccc4)C(=O)C3N2Nc2ccccc2)cc1 (stereo not given)
label 0

---

System: Chordin-like protein 2 (CHRDL2)
MEASUREMENT_PROTOCOL: CHRDL2 small-molecule binders, primary screen, biochemical, small-molecule microarray, 635 nm fluorescence (AID 1126);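 also: printed compound slides probed with Chrdl2 protein at 4 µg/mL for 1 h at 4 C; score merges 667 nm emission intensity with signal to noise over three replicate slides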
EXPERIMENTAL_CONDITIONS: small-molecule microarray binding, fluorescence 635 nm; higher = more signal
ENDPOINT: composite z-score
I'd appreciate a reply containing only the number, no unit.

COMPOUND	QUANTITATIVE_RESULT
COC1OC[C@]2(C)[C@H]3C4=C(CN2C(=O)OC(C)(C)C)[C@H](C)C(CO)C(CO)C4CC[C@@H]13 (stereo partly drawn)	-0.675
COC(=O)C(CC#Cc1ccc2c(c1)[C@]1(C(=O)N2)[C@H](C(=O)N2CCN(c3ncccn3)CC2)[C@H]2C(=O)O[C@H](c3ccccc3)[C@H](c3ccccc3)N2[C@@H]1c1ccc(OCCO)cc1)C(=O)OC	0.621

Consider now this further compound.
Specify measured composite z-score for "CCOC(=O)C1=C[C@@H](c2ccccc2)N(S(=O)(=O)c2ccc(C)cc2)[C@H]1c1ccccc1Cl" .
0.359

---

ASSAY_TARGET: Albumin (Bos taurus)
MEASUREMENT_PROTOCOL: bovine serum albumin binders on microarray, profiling panel, artefact control for SMM control protein annotation, biochemical, small-molecule microarray, Alexa647 label, 635/667 nm fluorescence (AID 1118);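 also: score merges 667 nm emission intensity and signal-to-noise per printed compound spot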
EXPERIMENTAL_CONDITIONS: BSA-A647 binding, fluorescence 635 nm, higher = more signal
ENDPOINT: composite z-score
Output spec: single numeric token, no unit.

Below are worked cases with known answers.
COMPOUND	ASSAY_TARGET	QUANTITATIVE_RESULT
CCOC(=O)c1ccc(NC(=O)O[C@H]2[C@H](OC(=O)Nc3ccc4c(c3)OCO4)[C@H](OC(=O)Nc3ccc4c(c3)OCO4)[C@@H](OC)O[C@@H]2CO)cc1	Albumin (Bos taurus)	0.0541
COc1ccc(-c2cc3c(c(CCc4ccccc4)n2)[Si](C(C)C)(C(C)C)OC3)cn1	Albumin (Bos taurus)	-0.0428

Answer with the recorded composite z-score of O=C1OCC=C[C@H]2OC34C=CCN(Cc5ccccc5)C(=O)[C@H]3N(CCCCCCO)C(=O)[C@@H]4[C@@H]12 (some centres not stated) only.
0.4

State its composite z-score for this compound: CCCCCCCCCCC(O)C1C=CC2C(=O)N(C)C(=O)C2N1NC(=O)OC(C)(C)C (configuration not stated)
0.682

// fetch composite z-score given entry CCOc1cc(C(O)C2C=CC3C(=O)N(c4ccccc4)C(=O)C3N2Nc2ccc(C#N)cc2)ccc1O (configuration not stated)
0.876

Identify the reported composite z-score for the following entry. "COc1ccc(CCNC(=O)[C@@H]2c3ccccc3C(=O)N(Cc3cc(C(F)(F)F)cc(C(F)(F)F)c3)[C@H]2c2ccc(CO)cc2)cc1"
-0.329

Please look at this compound and report its composite z-score: "COc1ccc([Si](C)(C)[C@@H]2[C@@H](CC(=O)N(CCO)Cc3ccccc3)O[C@]3(C(=O)N(Cc4cccc(N5CCOC5=O)c4)c4ccccc43)[C@H]2C)cc1"
-0.256

---

Recorded composite z-score for the following molecules
ASSAY_TARGET: Neurogenic locus notch homolog protein 2 (Homo sapiens) (UniProt Q04721)
Sequence (Q04721 whole entry, looked up): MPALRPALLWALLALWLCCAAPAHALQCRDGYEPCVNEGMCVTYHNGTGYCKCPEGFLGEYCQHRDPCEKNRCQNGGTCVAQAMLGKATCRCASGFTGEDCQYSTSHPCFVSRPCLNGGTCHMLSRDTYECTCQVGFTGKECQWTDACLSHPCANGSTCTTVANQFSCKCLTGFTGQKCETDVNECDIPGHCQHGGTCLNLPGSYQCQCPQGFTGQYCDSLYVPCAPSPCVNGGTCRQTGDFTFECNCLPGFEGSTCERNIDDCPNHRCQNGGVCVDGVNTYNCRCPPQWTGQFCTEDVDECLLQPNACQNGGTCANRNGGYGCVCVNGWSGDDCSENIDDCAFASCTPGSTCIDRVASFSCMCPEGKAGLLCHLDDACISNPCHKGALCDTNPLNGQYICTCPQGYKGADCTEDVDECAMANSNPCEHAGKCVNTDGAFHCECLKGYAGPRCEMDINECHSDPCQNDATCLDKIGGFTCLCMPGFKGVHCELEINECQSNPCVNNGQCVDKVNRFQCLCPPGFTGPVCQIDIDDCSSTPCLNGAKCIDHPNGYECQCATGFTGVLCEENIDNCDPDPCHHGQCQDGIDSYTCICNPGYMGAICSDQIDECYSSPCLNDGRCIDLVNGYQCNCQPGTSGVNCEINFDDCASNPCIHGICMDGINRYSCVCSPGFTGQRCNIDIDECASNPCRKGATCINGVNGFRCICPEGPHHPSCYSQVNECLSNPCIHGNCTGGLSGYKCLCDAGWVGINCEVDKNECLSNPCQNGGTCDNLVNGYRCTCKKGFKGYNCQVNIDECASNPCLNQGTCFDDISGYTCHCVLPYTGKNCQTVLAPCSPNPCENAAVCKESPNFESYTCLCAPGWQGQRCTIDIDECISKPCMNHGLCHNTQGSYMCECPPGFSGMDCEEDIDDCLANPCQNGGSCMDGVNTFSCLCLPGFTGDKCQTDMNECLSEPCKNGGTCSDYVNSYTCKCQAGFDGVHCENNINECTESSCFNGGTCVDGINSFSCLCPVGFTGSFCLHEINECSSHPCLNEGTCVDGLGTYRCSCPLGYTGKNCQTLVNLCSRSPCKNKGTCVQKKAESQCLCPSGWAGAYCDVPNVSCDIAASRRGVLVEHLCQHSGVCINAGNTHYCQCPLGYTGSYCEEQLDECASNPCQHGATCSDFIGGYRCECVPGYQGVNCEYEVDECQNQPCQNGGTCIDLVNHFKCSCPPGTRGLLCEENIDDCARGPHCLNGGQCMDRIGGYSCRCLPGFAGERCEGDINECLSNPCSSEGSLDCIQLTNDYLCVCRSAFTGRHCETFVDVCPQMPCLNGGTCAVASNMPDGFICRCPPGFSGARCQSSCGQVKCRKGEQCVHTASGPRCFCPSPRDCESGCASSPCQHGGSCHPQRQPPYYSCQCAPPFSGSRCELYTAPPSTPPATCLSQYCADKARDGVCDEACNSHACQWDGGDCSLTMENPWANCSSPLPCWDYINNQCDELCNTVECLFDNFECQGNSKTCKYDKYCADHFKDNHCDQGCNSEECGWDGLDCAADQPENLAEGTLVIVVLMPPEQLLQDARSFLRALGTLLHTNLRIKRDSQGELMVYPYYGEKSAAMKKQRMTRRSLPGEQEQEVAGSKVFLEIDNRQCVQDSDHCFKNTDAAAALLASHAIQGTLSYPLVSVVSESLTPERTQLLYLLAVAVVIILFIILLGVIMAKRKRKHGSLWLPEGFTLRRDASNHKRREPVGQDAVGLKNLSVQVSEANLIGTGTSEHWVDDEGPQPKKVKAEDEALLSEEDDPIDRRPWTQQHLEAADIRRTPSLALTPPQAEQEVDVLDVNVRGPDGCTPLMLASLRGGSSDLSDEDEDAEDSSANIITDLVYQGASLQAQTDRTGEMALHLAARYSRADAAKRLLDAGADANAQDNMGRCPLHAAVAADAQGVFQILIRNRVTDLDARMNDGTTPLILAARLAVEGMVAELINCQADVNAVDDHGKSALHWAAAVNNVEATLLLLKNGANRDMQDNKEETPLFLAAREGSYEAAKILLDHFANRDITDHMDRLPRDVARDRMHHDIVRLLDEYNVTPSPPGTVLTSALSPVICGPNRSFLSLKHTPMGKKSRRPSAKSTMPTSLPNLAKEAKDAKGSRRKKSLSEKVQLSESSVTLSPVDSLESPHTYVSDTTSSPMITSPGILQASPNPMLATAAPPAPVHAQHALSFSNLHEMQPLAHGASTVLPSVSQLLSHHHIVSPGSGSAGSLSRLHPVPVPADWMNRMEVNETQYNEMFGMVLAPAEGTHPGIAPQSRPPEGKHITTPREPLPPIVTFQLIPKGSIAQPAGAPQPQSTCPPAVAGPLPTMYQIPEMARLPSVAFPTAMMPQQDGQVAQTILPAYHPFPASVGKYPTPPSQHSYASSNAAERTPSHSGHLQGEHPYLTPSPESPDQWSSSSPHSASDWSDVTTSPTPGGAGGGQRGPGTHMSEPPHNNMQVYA
MEASUREMENT_PROTOCOL: Notch2 binders on small-molecule microarrays, primary screen, biochemical, small-molecule microarray, 635 nm fluorescence, stem cell growth factors (AID 1073)
EXPERIMENTAL_CONDITIONS: Notch2 binding, higher = more signal
// print number alone

// worked examples, composite z-score included
MOLECULE	QUANTITATIVE_RESULT
N#Cc1ccc(C(O)C2C=CC3C(=O)N(c4ccccc4)C(=O)C3N2Nc2ccccc2)cc1 (centres undefined)	1.32
O=C(NCc1ccccc1)[C@@H]1c2ccccc2C(=O)N(Cc2ccccc2C(F)(F)F)[C@H]1c1ccc(CO)cc1	-0.927

Enter measured composite z-score, system Neurogenic locus notch homolog protein 2 (Homo sapiens) (UniProt Q04721), for the molecule shown: "COc1cc2c(cc1OC)CN(C(=O)[C@@H]1[C@H]3C(=O)O[C@H](c4ccccc4)[C@H](c4ccccc4)N3[C@H](c3ccc(OCCO)cc3)[C@@]13C(=O)Nc1ccc(C#CC4(O)CCCCCC4)cc13)CC2"
1.14

Write down measured composite z-score (Neurogenic locus notch homolog protein 2 (Homo sapiens) (UniProt Q04721)) for this molecule. "Cc1ccc(S[C@]2(C(=O)NCC(F)(F)F)CC(=O)N(C3CCCCC3)[C@@H]2c2ccc(CO)cc2I)cc1"
1.18

---

ASSAY_TARGET: Luciferin 4-monooxygenase (Photinus pyralis)
MEASUREMENT_PROTOCOL: firefly luciferase enzyme inhibitors, primary screen, biochemical, luminescence, purified enzyme, 2006 set (AID 1141);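 also: cell-free assay with purified firefly luciferase at 100 ng per well in PBS; test concentration not given here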
EXPERIMENTAL_CONDITIONS: SteadyGlo luminescence, 30 min, higher = more signal, called active from +8 up or from −8 down
Assign class by z-score: not lower than 0.5 means criterion met; lower than 0.5 means criterion not met.

Known results for compounds:
COMPOUND	ASSAY_TARGET	CLASS_NAME
CCCCCCc1nc(C2CC2)cc2c1[Si](C(C)C)(C(C)C)OC2	Luciferin 4-monooxygenase (Photinus pyralis)	criterion met
CN1C(=O)C2C=CC(C(O)c3cccc(O)c3)N(Nc3ccccc3)C2C1=O (configuration not stated)	Luciferin 4-monooxygenase (Photinus pyralis)	criterion met
COC(=O)c1cn(C[C@@H](Cc2ccccc2)NC(=O)N[C@H](CO)CCc2oc(C(C)=O)c(C(=O)OC)c2C(=O)OC)nn1	Luciferin 4-monooxygenase (Photinus pyralis)	criterion not met
CCOC(=O)C1=CC[C@@H](c2ccc(OCc3ccccc3)c(OC)c2)N(S(=O)(=O)c2ccc(C)cc2)[C@H]1c1ccc(SC)cc1	Luciferin 4-monooxygenase (Photinus pyralis)	criterion not met
CCCCC(=C=CC[C@@H](O)c1ccccc1OCCO)C[C@@H](O)COCc1ccccc1	Luciferin 4-monooxygenase (Photinus pyralis)	criterion not met
CN(C)C(=O)[C@]1(CCS(=O)(=O)c2ccccc2)N=C(c2ccc(OCCCO)cc2)O[C@@H]1c1ccccc1N=[N+]=[N-]	Luciferin 4-monooxygenase (Photinus pyralis)	criterion not met
COC(=O)[C@@]1(Cc2ccc(OC)cc2)[C@H]2c3cc(C(=O)N4CCCC4)n(Cc4cccc5ccccc45)c3C[C@H]2CN1C(=O)c1ccccc1	Luciferin 4-monooxygenase (Photinus pyralis)	criterion met
CCOC(=O)C1=CC[C@@H](c2cccc(Cl)c2)N(S(=O)(=O)c2ccc(C)cc2)C1	Luciferin 4-monooxygenase (Photinus pyralis)	criterion not met
O=C1OCCC=C[C@H]2OC34C=CCN(Cn5nnc6ccccc65)C(=O)[C@H]3N(CCCCCCO)C(=O)[C@@H]4C12 (some centres not stated)	Luciferin 4-monooxygenase (Photinus pyralis)	criterion not met
CC(C)OC(=O)C=C1C[C@@H](c2ccc(C(F)(F)F)cc2)O[C@@H](c2ccc(C(F)(F)F)cc2)O1	Luciferin 4-monooxygenase (Photinus pyralis)	criterion not met

// inclusive: z-score at least 0.5? input: "C=C(C)c1cc2c(c(CCCCCC)n1)[Si](C(C)C)(C(C)C)OC2"
criterion met

For this compound, is measured z-score 0.5 or higher? CC(c1ccccc1)C(O)C1C=CC2C(=O)N(c3ccccc3)C(=O)C2N1Nc1ccc([N+](=O)[O-])cc1 (configuration not stated)
criterion met

Is the recorded value of z-score equal to or greater than 0.5 for this compound? "COCC1=C2[C@@H](CCc3ccccc3)OB(O)C[C@@H]2[C@@H]2C(=O)C=CC(=O)[C@@H]2C1"
criterion not met

Does the compound "NCCCCCNC(=O)[C@@H]1C[C@@H]2C(=O)NCC(=O)N2[C@@H]1c1cccc(OCCO)c1" have recorded z-score that is 0.5 or more?
criterion not met

Tell me whether z-score is at least 0.5 here: "COCCCNC(=O)[C@@]1(Sc2ccc(C)cc2)CC(=O)N(C2CCCCC2)[C@@H]1c1ccc(CO)cc1"
criterion met

Dear colleague, could you confirm whether "COC(=O)c1nc2oc1CC[C@@H](CO)NC(=O)N(C)Cc1cnnn1C[C@H](Cc1ccccc1)NC2=O" has z-score at or above 0.5?
criterion met

State whether the measured z-score reaches 0.5, counting equality as reaching it, for "Cc1ccc(S[C@]2(C(=O)O)CC(=O)N(C3Cc4ccccc4C3)[C@@H]2c2ccc(CO)cc2)cc1"
criterion not met
